PROTOCOL_SUMMARY: in vitro
Format: cell-based, human
RECORDED_CONDITIONS: human, Cell viability(%), AVERAGE
ASSAY_READOUT: viability at 5 µM (%)
Just the number please, in %, no unit attached.

Consider Cc1cc(C2CCCCC2)n(O)c(=O)c1 . Its measured viability at 5 µM is 95.2

* * *

PROTOCOL_SUMMARY: in vitro
RECORDED_CONDITIONS: human, Cell viability(%), AVERAGE
ASSAY_READOUT: viability at 0.2 µM (%)
Just the number please, in %, no unit attached.

Consider Cc1cc(C2CCCCC2)n(O)c(=O)c1 [Ciclopirox] . Its measured viability at 0.2 µM is 102
